Value source: ChEMBL document CHEMBL3585283

test system: K562; assay: Antitumor activity against human K562 cells after 48 hrs; type: functional; settings: K562, 48 h
parameter.measured: GI50 (nM)
Please state the figure in nM; there is no need to write the unit.

Observe how each entry below is paired with its result.
[
  {
    "smiles.record": "COc1cc(OC)cc(/C(C#N)=C/c2cnc3ccccc3c2)c1",
    "tested.system": "K562",
    "unit.tag": "nM",
    "result": 243
  },
  {
    "smiles.record": "COc1cc(OC)cc(/C(C#N)=C/c2ccc3ccccc3n2)c1",
    "tested.system": "K562",
    "unit.tag": "nM",
    "result": 353
  },
  {
    "smiles.record": "COc1cc(/C(C#N)=C/c2ccc3ccccc3n2)cc(OC)c1OC",
    "tested.system": "K562",
    "unit.tag": "nM",
    "result": 80
  }
]

Let us examine a further case.
Any idea what its GI50 is? The compound is `COc1cc(/C(C#N)=C/c2cnc3ccccc3c2)cc(OC)c1OC`
444
